- System: Human immunodeficiency virus 1
- method: Antiviral activity against wild type HIV1 3B harboring reverse transcriptase infected in human MT4 cells assessed as protection against virus induced cytotoxicity after 5 days by MTT assay
- Type: functional, cell-based
- conditions: Human immunodeficiency virus 1, 3B, MT4, 120 h
reported_metric: log10(EC50) (log10 of the value in nM)

>  <entry_smiles>
Cc1cc(C)c(Oc2nc(NC3CCN(Cc4cccc(C#N)c4)CC3)nc3ccsc23)c(C)c1

>  <observed_result>
1.32

$$$$
>  <entry_smiles>
COC(=O)c1ccc(CN2CCC(Nc3nc(Oc4c(C)cc(C#N)cc4C)c4sccc4n3)CC2)cc1

>  <observed_result>
0.51

$$$$
>  <entry_smiles>
Cc1cc(C)c(Oc2nc(NC3CCN(Cc4ccc(F)cc4F)CC3)nc3ccsc23)c(C)c1

>  <observed_result>
1.57

$$$$
>  <entry_smiles>
COC(=O)c1ccc(CN2CCC(Nc3nc(Oc4c(C)cc(C)cc4C)c4sccc4n3)CC2)cc1

>  <observed_result>
1.19

$$$$
>  <entry_smiles>
Cc1cc(C#N)cc(C)c1Oc1nc(NC2CCN(Cc3ccc(S(C)(=O)=O)cc3)CC2)nc2ccsc12

>  <observed_result>
1.34

$$$$
>  <entry_smiles>
Cc1cc(C)c(Oc2nc(NC3CCN(Cc4ccc(F)cc4)CC3)nc3ccsc23)c(C)c1

>  <observed_result>
1.41

$$$$

* * *

- Tested on: Human immunodeficiency virus 1
- method: Potency index, ratio of ETV EC50 to compound EC50 for HIV1 3B harboring reverse transcriptase YI88L mutant infected in human MT4 cells
- Type: functional
reported_metric: Ratio EC50

>  <entry_smiles>
Cc1cc(C#N)cc(C)c1Oc1nc(NC2CCN(Cc3ccc(S(N)(=O)=O)cc3)CC2)nc2ccsc12

>  <observed_result>
7

$$$$
>  <entry_smiles>
Cc1cc(C#N)cc(C)c1Oc1nc(NC2CCN(Cc3ccc(NS(C)(=O)=O)cc3)CC2)nc2ccsc12

>  <observed_result>
2

$$$$
>  <entry_smiles>
Cc1cc(C#N)cc(C)c1Oc1nc(NC2CCN(Cc3ccc(C(N)=O)cc3)CC2)nc2ccsc12

>  <observed_result>
2

$$$$
>  <entry_smiles>
CNS(=O)(=O)c1ccc(CN2CCC(Nc3nc(Oc4c(C)cc(C#N)cc4C)c4sccc4n3)CC2)cc1

>  <observed_result>
2

$$$$

* * *

- Tested on: Human immunodeficiency virus 1
- method: Antiviral activity against HIV1 3B harboring reverse transcriptase K103N mutant infected in human MT4 cells assessed as protection against virus induced cytotoxicity after 5 days by MTT assay
- Format: functional, cell-based
- conditions: Human immunodeficiency virus 1, 3B, MT4, 120 h
pEC50: −log10 of the molar value.
Classes based on pEC50: 1 = under 7, 2 = from 7 up to 8, 3 = 8 and over

>  <entry_smiles>
Cc1cc(C)c(Oc2nc(NC3CCN(Cc4ccc([N+](=O)[O-])cc4)CC3)nc3ccsc23)c(C)c1

>  <system_name>
Human immunodeficiency virus 1

>  <class_name>
2

$$$$
>  <entry_smiles>
CCOC(=O)c1ccc(CN2CCC(Nc3nc(Oc4c(C)cc(C#N)cc4C)c4sccc4n3)CC2)cc1

>  <system_name>
Human immunodeficiency virus 1

>  <class_name>
1

$$$$
>  <entry_smiles>
Cc1cc(C#N)cc(C)c1Oc1nc(NC2CCN(Cc3cccc(S(N)(=O)=O)c3)CC2)nc2ccsc12

>  <system_name>
Human immunodeficiency virus 1

>  <class_name>
3

$$$$
>  <entry_smiles>
Cc1cc(C#N)cc(C)c1Oc1nc(Nc2ccc(C#N)cc2)nc(N)c1Br

>  <system_name>
Human immunodeficiency virus 1

>  <class_name>
3

$$$$
>  <entry_smiles>
Cc1cc(C#N)cc(C)c1Oc1nc(NC2CCN(Cc3ccc(S(N)(=O)=O)cc3)CC2)nc2ccsc12

>  <system_name>
Human immunodeficiency virus 1

>  <class_name>
3

$$$$
>  <entry_smiles>
Cc1ccnc2c1NC(=O)c1cccnc1N2C1CC1

>  <system_name>
Human immunodeficiency virus 1

>  <class_name>
1

$$$$
>  <entry_smiles>
Cc1cc(C)c(Oc2nc(NC3CCN(Cc4ccc(S(N)(=O)=O)cc4)CC3)nc3ccsc23)c(C)c1

>  <system_name>
Human immunodeficiency virus 1

>  <class_name>
1

$$$$
>  <entry_smiles>
Cc1cc(C#N)cc(C)c1Oc1nc(NC2CCN(Cc3ccc(NS(C)(=O)=O)cc3)CC2)nc2ccsc12

>  <system_name>
Human immunodeficiency virus 1

>  <class_name>
3

$$$$
>  <entry_smiles>
Cc1cc(C)c(Oc2nc(NC3CCN(Cc4cccc(C#N)c4)CC3)nc3ccsc23)c(C)c1

>  <system_name>
Human immunodeficiency virus 1

>  <class_name>
2

$$$$
>  <entry_smiles>
Cc1cc(C#N)cc(C)c1Oc1nc(NC2CCN(Cc3ccc(C(N)=O)cc3)CC2)nc2ccsc12

>  <system_name>
Human immunodeficiency virus 1

>  <class_name>
3

$$$$
>  <entry_smiles>
CNS(=O)(=O)c1ccc(CN2CCC(Nc3nc(Oc4c(C)cc(C#N)cc4C)c4sccc4n3)CC2)cc1

>  <system_name>
Human immunodeficiency virus 1

>  <class_name>
3

$$$$
>  <entry_smiles>
Cc1cn([C@H]2C[C@H](N=[N+]=[N-])[C@@H](CO)O2)c(=O)[nH]c1=O

>  <system_name>
Human immunodeficiency virus 1

>  <class_name>
3

$$$$
